Attribution: the Human Domainome abundance scans (Beltran et al. 2025)

B1: Membrane-associated guanylate kinase, WW and PDZ domain-containing protein 2, residues 601 to 682; numbered along this chain, Q86UL8 (parent)
chain: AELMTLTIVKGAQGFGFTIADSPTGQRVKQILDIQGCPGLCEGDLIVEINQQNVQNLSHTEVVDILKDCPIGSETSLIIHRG

# Variants of: B1
# run.description: abundance fitness (aPCA) (normalised: wild type 0, dead -1); higher = more abundant; growth selection in yeast, the domain comes from the species named
# conditions.used: Homo sapiens
reported.property: abundance fitness
Just the number.

{"columns": ["variant.notation", "measured.number"],
 "data": [
  ["L57E", -0.038],
  ["I34K", -0.007],
  ["Q52E", -0.016],
  ["G72P", 0.022],
  ["I34V", 0.017],
  ["G43D", 0.023],
  ["K67G", 0.052],
  ["P38H", -0.363],
  ["I49H", -0.964],
  ["L32W", -0.158]
]}

Then this variant:
Lab note: I71H gave abundance fitness of -0.18
